- System: Cyp. diff.
- assay name: preemergence treatment in the greenhouse, % damage
- Format: in vivo
- condition details: 0.125 kg/ha
readout type: % damage (%)

>  <molecule>
CCc1cccc(CC)c1N(COC)C(=O)CCl [prior art, reference compound]

>  <obs value>
65

$$$$
>  <molecule>
Cc1cc(C)n(CN(C(=O)CCl)c2c(C)cccc2C)n1 [Compound 38]

>  <obs value>
100

$$$$
>  <molecule>
Cc1cccc(C)c1N(Cn1cccn1)C(=O)CCl [Compound 5]

>  <obs value>
100

$$$$
>  <molecule>
CCc1cccc(C)c1N(Cn1nc(C)cc1C)C(=O)CCl [Compound 40]

>  <obs value>
100

$$$$

====

- Tested on: Alopec. myosur.
- assay name: preemergence application in the open, % damage
- Type: in vivo
- condition details: 2.0 kg/ha
readout type: % damage (%)

>  <molecule>
Cc1cccc(C)c1N(Cn1cccn1)C(=O)CCl

>  <obs value>
95

$$$$
>  <molecule>
CCc1cccc(CC)c1N(COC)C(=O)CCl [prior art, reference compound]

>  <obs value>
65

$$$$
>  <molecule>
CCc1cccc(C)c1N(Cn1cncn1)C(=O)CCl [Compound 129]

>  <obs value>
35

$$$$
>  <molecule>
Cc1cc(C)n(CN(C(=O)CCl)c2c(C)cccc2C)n1

>  <obs value>
80

$$$$
>  <molecule>
CCc1cccc(C)c1N(Cn1cncn1)C(=O)CCl [Compound 191]

>  <obs value>
30

$$$$

====

- System: Stell. med.
- assay name: preemergence treatment in the greenhouse, % damage
- Format: in vivo
- condition details: 0.5 kg/ha
Below, each of the molecules is paired with its reported % damage value.

>  <molecule>
Cc1cc(C)n(CN(C(=O)CCl)c2c(C)ccc(C)c2C)n1 [Compound 47]

>  <% damage [%]>
80

$$$$
>  <molecule>
Cc1ccc(C)c(N(Cn2cncn2)C(=O)CCl)c1C [Compound 136]

>  <% damage [%]>
30

$$$$
>  <molecule>
CCc1cccc(CC)c1N(COC)C(=O)CCl [prior art, reference compound]

>  <% damage [%]>
70

$$$$
>  <molecule>
Cc1ccc(C)c(N(Cn2cccn2)C(=O)CCl)c1C [Compound 14]

>  <% damage [%]>
100

$$$$

====

- Tested on: Stell. med.
- assay name: postemergence application in the greenhouse, % damage
- Assay type: in vivo
- condition details: 1.0 kg/ha
Below, each of the compounds is paired with its reported % damage value.

>  <compound>
Cc1cc(C)n(CN(C(=O)CCl)c2c(C)cccc2C)n1

>  <unit info>
%

>  <% damage>
100

$$$$
>  <compound>
Cc1cccc(C)c1N(Cn1cccn1)C(=O)CCl

>  <unit info>
%

>  <% damage>
95

$$$$
>  <compound>
CCc1cccc(C)c1N(Cn1ccc(C)n1)C(=O)CCl

>  <unit info>
%

>  <% damage>
60

$$$$
>  <compound>
CCc1cccc(CC)c1N(COC)C(=O)CCl [prior art, reference compound]

>  <unit info>
%

>  <% damage>
0

$$$$
>  <compound>
CCc1cccc(C)c1N(Cn1cncn1)C(=O)CCl

>  <unit info>
%

>  <% damage>
0

$$$$

====

- System: Matric. spp.
- assay name: preemergence treatment in the greenhouse, % damage
- Format: in vivo
- condition details: 2.0 kg/ha
readout type: % damage (%)

>  <smiles code>
Cc1cccc(C)c1N(Cn1cc(Cl)cn1)C(=O)CCl

>  <obs value>
80

$$$$
>  <smiles code>
Cc1ccccc1N(Cn1nc(C)c(C)c1C)C(=O)CCl

>  <obs value>
95

$$$$
>  <smiles code>
CCc1cccc(CC)c1N(Cn1cc(OC)cn1)C(=O)CCl

>  <obs value>
98

$$$$
>  <smiles code>
Cc1ccccc1N(Cn1nccc1C)C(=O)CCl

>  <obs value>
90

$$$$
>  <smiles code>
Cc1ccccc1N(Cn1cccn1)C(=O)CCl

>  <obs value>
90

$$$$
>  <smiles code>
Cc1cccc(C)c1N(Cn1ncnn1)C(=O)CCl

>  <obs value>
100

$$$$

====

Below, each of the compounds is paired with its reported % damage value.
- Test system: Gossyp. hirs.
- assay name: preemergence treatment in the greenhouse, % damage
- Format: in vivo, Gosspyium hirsutum
- condition details: 0.5 kg/ha
- From the text: The vessels employed were plastic flowerpots having a volume of 300 cm^3; the substrate was a sandy loam containing about 1.5% humus. The seeds of the test plants (see Table 1) were sown shallow, and separated according to species. In the case of Cyperus esculentus, pregerminated tubers were planted. […] This cover ensured uniform germination of the test plants (to the extent that this was not impaired by the chemicals), and prevented readily volatile substances from evaporating. […]
readout type: % damage (%)

>  <compound>
CCc1cccc(C)c1N(Cn1cncn1)C(=O)CCl [Compound 189]

>  <obs value>
0

$$$$
>  <compound>
CCc1cccc(CC)c1N(Cn1cncn1)C(=O)CCl [Compound 130]

>  <obs value>
20

$$$$
>  <compound>
CCc1cccc(CC)c1N(COC)C(=O)CCl [bekannt, reference compound]

>  <obs value>
6

$$$$

====

- Test system: Alopec. myosur.
- assay name: preemergence treatment in the greenhouse, % damage
- Type: in vivo
- condition details: 0.5 kg/ha

>  <compound>
Cc1ccc(C)c(N(Cn2cccn2)C(=O)CCl)c1C [Compound 14]

>  <measured on>
Alopec. myosur.

>  <unit info>
%

>  <% damage>
100

$$$$
>  <compound>
Cc1cnn(CN(C(=O)CCl)c2c(C)cccc2C)c1

>  <measured on>
Alopec. myosur.

>  <unit info>
%

>  <% damage>
90

$$$$
>  <compound>
CCc1ccccc1N(Cn1ccc(C)n1)C(=O)CCl [Compound 69]

>  <measured on>
Alopec. myosur.

>  <unit info>
%

>  <% damage>
100

$$$$
>  <compound>
COc1cnn(CN(C(=O)CCl)c2c(C)cccc2C)c1

>  <measured on>
Alopec. myosur.

>  <unit info>
%

>  <% damage>
100

$$$$
>  <compound>
CCc1cccc(C)c1N(Cn1cc(OC)cn1)C(=O)CCl

>  <measured on>
Alopec. myosur.

>  <unit info>
%

>  <% damage>
100

$$$$
>  <compound>
COc1cc(C)n(CN(C(=O)CCl)c2c(C)cccc2C)n1

>  <measured on>
Alopec. myosur.

>  <unit info>
%

>  <% damage>
95

$$$$
>  <compound>
Cc1cc(C)n(CN(C(=O)CCl)c2c(C)ccc(C)c2C)n1 [Compound 47]

>  <measured on>
Alopec. myosur.

>  <unit info>
%

>  <% damage>
100

$$$$
>  <compound>
CCc1cccc(CC)c1N(COC)C(=O)CCl [prior art, reference compound]

>  <measured on>
Alopec. myosur.

>  <unit info>
%

>  <% damage>
80

$$$$
>  <compound>
CCc1ccccc1N(Cn1nc(C)cc1C)C(=O)CCl [Compound 36]

>  <measured on>
Alopec. myosur.

>  <unit info>
%

>  <% damage>
90

$$$$
>  <compound>
Cc1ccc(C)c(N(Cn2cncn2)C(=O)CCl)c1C [Compound 136]

>  <measured on>
Alopec. myosur.

>  <unit info>
%

>  <% damage>
50

$$$$

====

- Test system: Sorgh. halep.
- assay name: preemergence treatment in the greenhouse, % damage
- Assay type: in vivo
- condition details: 1.0 kg/ha
Below, each of the molecules is paired with its reported % damage value.
readout type: % damage (%)

>  <molecule>
Cc1cc(C)n(CN(C(=O)CCl)c2c(C)cccc2C(C)C)n1 [Compound 42]

>  <measured on>
Sorgh. halep.

>  <readout type>
% damage

>  <obs value>
90

$$$$
>  <molecule>
Cc1cc(C)c(N(Cn2nc(C)cc2C)C(=O)CCl)c(C)c1 [Compound 46]

>  <measured on>
Sorgh. halep.

>  <readout type>
% damage

>  <obs value>
80

$$$$
>  <molecule>
CCc1cccc(CC)c1N(COC)C(=O)CCl [prior art, reference compound]

>  <measured on>
Sorgh. halep.

>  <readout type>
% damage

>  <obs value>
70

$$$$
>  <molecule>
Cc1ccc(C)c(N(Cn2cccn2)C(=O)CCl)c1C [Compound 14]

>  <measured on>
Sorgh. halep.

>  <readout type>
% damage

>  <obs value>
100

$$$$
>  <molecule>
Cc1cc(C)n(CN(C(=O)CCl)c2ccccc2C(C)C)n1 [Compound 37]

>  <measured on>
Sorgh. halep.

>  <readout type>
% damage

>  <obs value>
80

$$$$

====

Below, each of the compounds is paired with its reported % damage value.
- System: Matric. spp.
- assay name: postemergence application in the greenhouse, % damage
- Assay type: in vivo
- condition details: 2.0 kg/ha
readout type: % damage (%)

>  <compound>
CCc1cccc(C)c1N(Cn1ccc(C)n1)C(=O)CCl [Compound 68]

>  <obs value>
80

$$$$
>  <compound>
CCc1cccc(C)c1N(Cn1cncn1)C(=O)CCl [Compound 189]

>  <obs value>
60

$$$$
>  <compound>
CCc1cccc(CC)c1N(COC)C(=O)CCl [prior art, reference compound]

>  <obs value>
50

$$$$
>  <compound>
Cc1cccc(C)c1N(Cn1cccn1)C(=O)CCl [Compound 5]

>  <obs value>
95

$$$$
